- System: U2OS
- measurement.description: Multiplex assay against U2OS
- Type: toxicity, cell-based
- measurement.parameters: human, 48 h, 10 µM, compound concentration 10 uM, replicate 1

{"compound": "COc1cc(Nc2nccc(-c3cnn4nc(OC)ccc34)n2)cc(C(F)(F)F)c1", "Population Pyknosed Nuclei (%)": 21}
{"compound": "COc1ccc(-c2ccc3ncc4c(c3c2)n(-c2ccc(N3CCNCC3)c(C(F)(F)F)c2)c(=O)n4C)cn1.O=C(O)/C=C\\C(=O)O [BGT-226]", "Population Pyknosed Nuclei (%)": 55}
{"compound": "CNC(=O)Nc1ccc(-c2nc(N3CC4CCC(C3)O4)c3cnn(C4CCC5(CC4)OCCO5)c3n2)cc1", "Population Pyknosed Nuclei (%)": 47}
{"compound": "CC1=C(C(=O)Nc2cc3cn[nH]c3cc2F)C(c2ccc(C(F)(F)F)cc2)CC(=O)N1 (configuration not stated)", "Population Pyknosed Nuclei (%)": 15}
{"compound": "CC(C)OC(=O)N1CCC(Oc2ncnc3c2cnn3-c2ccc(S(C)(=O)=O)cc2F)CC1", "Population Pyknosed Nuclei (%)": 11}
{"compound": "CCc1ccc(OCc2ccccc2C(=O)Nc2ccc3nc(C)cc(N)c3c2)cc1.Cl", "Population Pyknosed Nuclei (%)": 77}
{"compound": "COc1ccccc1CN[C@H]1C2CCN(CC2)[C@H]1C(c1ccccc1)c1ccccc1 [CP-96345]", "Population Pyknosed Nuclei (%)": 23}
{"compound": "CN1CCN(Cc2ccc(Nc3ncc(Cl)c(Nc4ccccc4S(=O)(=O)N(C)C)n3)cc2)CC1 [DUBERMATINIB]", "Population Pyknosed Nuclei (%)": 51}
{"compound": "Cc1ccc2c(c1)c1c(n2CCc2ccc(C)nc2)CCN(C)C1 [LATREPIRDINE]", "Population Pyknosed Nuclei (%)": 41}
{"compound": "CC(C)c1noc(N2CCC(COc3ccc(-c4ccc(S(C)(=O)=O)cc4)nc3)CC2)n1 [GSK-1292263]", "Population Pyknosed Nuclei (%)": 9}
{"compound": "CCCSc1nc(N[C@@H]2C[C@H]2c2ccc(F)c(F)c2)c2nnn([C@@H]3C[C@H](OCCO)[C@@H](O)[C@H]3O)c2n1 [TICAGRELOR]", "Population Pyknosed Nuclei (%)": 36}
{"compound": "COC(=O)C1=C(C)NC(C)=C(C(=O)OCCCN2CCC(c3ccccc3)(c3ccccc3)CC2)[C@H]1c1cccc([N+](=O)[O-])c1 [NIGULDIPINE]", "Population Pyknosed Nuclei (%)": 28}
{"compound": "COc1cc2ncn(-c3cc(OCc4ccccc4C(F)(F)F)c(C(N)=O)s3)c2cc1OC [GW843682X]", "Population Pyknosed Nuclei (%)": 29}
{"compound": "O=C(c1cc2c(cc1F)OC(c1ccc(F)cc1)(c1ccc(Cl)cc1Cl)O2)N1CCOCC1 (configuration not stated)", "Population Pyknosed Nuclei (%)": 34}
{"compound": "CC(C)Oc1ccccc1C(=O)Nc1ccccc1C(=O)Nc1cccc(S(=O)(=O)C(F)(F)F)c1", "Population Pyknosed Nuclei (%)": 15}
{"compound": "Cc1cccc(CN2CCN(C(c3ccccc3)c3ccc(Cl)cc3)CC2)c1.Cl.Cl (configuration not stated)", "Population Pyknosed Nuclei (%)": 18}
{"compound": "CC(C)NC(=O)N1CC[C@H](NC2=Nc3cc(F)ccc3N(CC(F)F)c3ccc(Cl)cc32)C1", "Population Pyknosed Nuclei (%)": 29}
{"compound": "O=c1cc(N2CCOCC2)oc2c(-c3cccc4c3sc3ccccc34)cccc12", "Population Pyknosed Nuclei (%)": 63}
{"compound": "Cc1c[nH]c2nccc(Oc3c(F)cc(Nc4cc(Cl)nc(N)n4)cc3F)c12 [BAY-549]", "Population Pyknosed Nuclei (%)": 24}
{"compound": "CCOC(=O)Nc1cc(-c2ccc(C)c(NS(C)(=O)=O)c2)nn2c(C)nnc12", "Population Pyknosed Nuclei (%)": 3}
{"compound": "CCc1nn(CCCN2CCN(c3cccc(Cl)c3)CC2)c(=O)n1CCOc1ccccc1.Cl [NEFAZODONE HYDROCHLORIDE]", "Population Pyknosed Nuclei (%)": 34}
{"compound": "Cl.O=C(O)c1cc(-c2ccc(C3CCNCC3)cc2)c2ccc(-c3ccc(C(F)(F)F)cc3)cc2c1", "Population Pyknosed Nuclei (%)": 21}
